Reference source for all entries: patent US20070027184A1

experiment: in vivo; conditions: female, mouse, in vivo; daily oral gavage; highest dose without lethality or ≧20% bodyweight loss; read-out: Maximum tolerated dose (MTD)

- molecule: "CC(=O)SCC(=O)c1ccc(NS(=O)(=O)c2ccc3c(c2)OCCO3)nc1"
  MTD: "< 100 mg/kg"
